Test system: UACC-257 melanoma
assay comment: NCI-60 one-dose screen, 48 h
conditions used: 10 µM unless noted
This is part of a sample that, as a whole, favours compounds with a hit. Of some 83,000 tested, about 20% had one in any assay. Activity calls are given as the source filed them. Rule for the calls: active = growth percent below 10; inactive = the rest.
Give one outcome, nothing more. List: label 1 for active, label 0 for inactive

compound | class name
N[C@@H](CCCCNCC(=O)O)C(=O)O | label 0

[in] Hi, do you know how O=Cc1ccc(O)c2ncccc12 came out in this test?
[out] label 0

[in] # fetch the recorded call for C#Cc1cccc(NC(=O)c2ccc(NC(=O)CCl)cc2)c1 here
[out] label 0

[in] State the result this test recorded for CCN(CC)Cc1cccc(C(=O)OC)c1 .
[out] label 0

----------
System: OVCAR-4 ovarian
assay comment: NCI-60 one-dose screen, 48 h (100 = growth as untreated, 0 = no growth, -100 = all killed)
conditions used: 10 µM unless noted
About 83,000 compounds went through this panel and 20% of them were active in at least one assay; those are over-represented in the sample as a whole.
Can you tell me growth for the items I'm about to list?
Numbers only, in %.

// worked examples, growth included
compound | target entity | observable | observed value
Cc1ccc(C(=O)CSc2nc(-c3ccc(Br)cc3)c(C#N)c(=O)[nH]2)cc1 | OVCAR-4 ovarian | growth | 85.9
c1ccc2c(c1)nc(CN1CCOCC1)n1cc(N3CCCC3)nc21 | OVCAR-4 ovarian | growth | 111
O=c1cc(C2NNC(=S)N2)c2ccc3ccccc3c2o1 (stereo not given) | OVCAR-4 ovarian | growth | 101
COc1cc2ncn3c(=O)c4c5c(sc4nc3c2cc1OC)CCCC5 | OVCAR-4 ovarian | growth | 92.7
N#Cc1c(N)nc2c(C#N)c(NC(=O)c3ccccc3)nn2c1-c1ccccc1 | OVCAR-4 ovarian | growth | 88.8

Please look at the items below and tell me growth for each one, in order.
1. CC/C=C1/C(=O)C=C[C@@H]1C/C=C\CCCC(=O)O
2. Nc1cc2c3c(cccc3c1)C(=O)N(CCN1CCCC1)C2=O
3. COc1ccc(-c2nc(SCC(=O)Nc3nc(-c4ccccc4)cs3)[nH]c(=O)c2C#N)cc1
4. CCN(CC)c1ccc2nc3c4ccccc4c(=NC(=O)c4ccccc4-c4c5ccc(N(CC)CC)cc5[o+]c5cc(N(CC)CC)ccc45)cc-3oc2c1
5. C(=N\Nc1ncc(-c2cc3cc4c(cc3o2)OCO4)s1)/c1ccco1

[out]
1. 86.9
2. 49.2
3. 109
4. -47.4
5. 32.5

----------
System: M14 melanoma
assay comment: NCI-60 one-dose screen, 48 h
conditions used: 10 µM unless noted
The panel holds about 83,000 compounds, 20% with a hit somewhere; the sample as a whole holds those more often. Active and inactive are the calls of the source. The calls were made as follows: active = growth percent below 10; inactive = the rest.
Respond using exactly one of the listed classes: true (active), false (inactive)

Some solved entries appear below for comparison.
compound | class name
N#CCN1C(=O)C2C3=C(CCCC3)SC2N=C1CN1CCCC1 (stereo not given) | false
O=C(c1ccccc1)N1N=C(c2ccccc2)CC1c1nnc2n(Cc3ccccc3)c(=O)c3c4c(sc3n12)CCCC4 (stereo not given) | false
CC1CC(C(C)(C)C)C(=O)C(C(C)(C)C)C1 (stereo not given) | false
COc1nc2c(c(=O)n1C)CN(c1ccccc1)C(=O)CN2C | false
CCCCc1ccc(Nc2ccc(Nc3ccc(CCCC)cc3S(=O)(=O)O)c3c2C(=O)c2ccccc2C3=O)c(S(=O)(=O)O)c1 | false
N#Cc1c(-c2cccc(Cl)c2)cc(-c2cccc(Cl)c2)[nH]c1=O | false

[in] Check the results log: what was the call for COc1cccc(-c2nn(-c3ccccc3)cc2-c2ccnc(NCCNC(=O)c3ccccc3)c2)c1 ?
[out] false

[in] Per the assay record, what outcome was assigned to O=C1Nc2ccccc2/C1=C/c1cn(C(=O)c2ccc(Cl)cc2)c2ccccc12 ?
[out] false

[in] Record request — test call for CCCCCCCCCCCCCCCCCCOc1ccccc1CC(=O)OCCC[N+](C)(C)C
[out] false

[in] Recorded test outcome, item CCN(CC)S(=O)(=O)c1cccc(-c2ccc3c(NC(=O)C4CC4)n[nH]c3c2)c1
[out] true
